Data origin, for the record: patent US20230295310A1

biological target: T1, human CD3 expressed on cells (human, UniProt P07766 23-207; P04234 22-171; P09693 23-182); experiment: flow cytometry, 25 nM
T1 construct: whole, on cells; CD3 complex on Jurkat cells and on human primary T cells
T1 sequence (P07766 23-207, chain 1 of 3): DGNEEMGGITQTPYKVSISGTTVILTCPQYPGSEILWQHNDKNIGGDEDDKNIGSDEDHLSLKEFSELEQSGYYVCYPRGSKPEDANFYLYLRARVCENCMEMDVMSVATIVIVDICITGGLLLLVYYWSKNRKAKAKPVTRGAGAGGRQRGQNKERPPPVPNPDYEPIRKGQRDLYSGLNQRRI
T1 sequence (P04234 22-171, chain 2 of 3): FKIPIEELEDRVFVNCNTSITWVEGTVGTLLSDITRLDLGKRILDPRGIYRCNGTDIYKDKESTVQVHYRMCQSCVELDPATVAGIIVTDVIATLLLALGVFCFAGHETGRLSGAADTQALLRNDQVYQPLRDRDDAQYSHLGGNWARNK
T1 sequence (P09693 23-182, chain 3 of 3): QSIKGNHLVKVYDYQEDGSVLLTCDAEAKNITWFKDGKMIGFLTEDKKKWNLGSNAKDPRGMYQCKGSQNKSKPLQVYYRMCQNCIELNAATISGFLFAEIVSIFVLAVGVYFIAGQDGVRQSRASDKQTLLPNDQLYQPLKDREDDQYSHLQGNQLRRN
Recorded Jurkat Cell Binding (FOI) by entry
All answers are understood in FOI, so give the number only.

For record mAb 71 (antibody, V domains shown) VH: QVQLVQSGAEVRKPGASVKVSCKASGYTFTKYDVNWVRQAPGQGLEWMGWMNSNNGNIGYAQKFQGRVTMTRKTSISTAYMELSSLRSEDTAVYYCAREGHYDFWRGFYNFDYWGQGTLVTVSS VL: DIQMTQSPSSLSASVGDRVTITCRASQDIKNDLGWYQQKPGKAPKRLIYAASSLQSGVPSRFSGSGSGTEFTLTISSLQPEDFATYYCLQHNFYPITFGQGTRLEIK the listed Jurkat Cell Binding (FOI) is 100

Record mAb 52 (antibody, V domains shown) VH: QVQLVQSGAEVKKPGASVKVSCKASGYTFTSHDINWVRQATGQGLEWMGWLNPNSGKTGYAQKFQGRVTMARDTSMYTADMELSSLRFEDTAVYYCARVGHYDMWPGFFSFDYWGQGTLVTVSS VL: DIQMTQSPSSLSASVGDRIIITCRASQDIRNDLGWYQQKPGKAPKRLIYAASSLQSGVPSRFSGSRSGTEFTLTISSLHPEDFATYYCLQHRSYPYTFGQGTNLEIK . Reported Jurkat Cell Binding (FOI): 181

The binder listed as mAb 85 (antibody, V domains shown) VH: QVQLVQSGAEVKKPGASVKVSCKASGYTVTGYYMHWVRQAPGQGLEWMGWINPNSGGTNFAQNFQGRVTMTRDTSISTFYMDLNRLRSDDTAVYYCARGGAPVSYWFFDLWGRGTLVTVSS VL: DIQMTQSPSSLSASVGDRVTITCRASQSISRYLNWYQQKPGKAPKVLIYNTSSLKSGVPSRFSGSGSGTDFTLTISSLQPEDFGTFYCQQSHSTPFTFGPGTKVDIK has a reported Jurkat Cell Binding (FOI) of 181

Jurkat Cell Binding (FOI) reported for this binder mAb 167 (antibody, V domains shown) VH: EVHLVESGGGLVQPGRSLRLSCAASGFTFDDYAMHWVRQAPGKGLEWVSGISWNSGTIGYADSVKGRFTISRDNAKNSLYLEMNSLRAEDTALYYCAKDSSGYGHYYHYYIDVWGTGTTVTVSS VL: EIVMTQSPATLSVSPGGRATLSCRASQSVGSNLAWYQQKPGQAPRLLIYDASTRATGIPARFRGSGSGTEFTLTISGLQSEDFAVYYCQLYYNWPHFGQGTRLEIK : 124

// Jurkat Cell Binding (FOI) value for mAb 46 (antibody, V domains shown) VH: EGQLVESGGGLVQPGGSLRLSCVASGFTLSSYTLNWVRQAPGKGLEWVSYISSTSRTIYYSDSVKGRFTISRDNAKNSLYLQMNSLRDEDTALYYCAREDYYDSSGFDYWGQGTLVTVSS VL: AIRMTQSPSSFSASTGDRVTITCRASQGISSYLAWYQQKPGKAPKLLIYTASTLQSGVPSRFSGSGSGTDFTLTIRSLQSEDFATYYCQQYYSYPRTFGQGTKVEIK : 107
